B1: LINE1-full (parent)
chain: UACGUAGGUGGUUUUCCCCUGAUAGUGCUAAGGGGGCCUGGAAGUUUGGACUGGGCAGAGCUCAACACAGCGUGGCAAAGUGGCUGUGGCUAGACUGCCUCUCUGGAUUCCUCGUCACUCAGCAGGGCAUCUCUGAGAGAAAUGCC

Variants of: B1
Assay info: self-cleavage, relative activity (ratio to wild type); higher = more cleavage; in vitro, sequencing; the parent is a self-cleaving ribozyme

Mutation	self-cleavage
A57U G83A	0.03
U20C A141U	1.36
G35A A79G	1.36
C98U G105C	0.75
A79U U87A	0.05
C38U C98G	0.12
U47A C99U	0.3
U81G A92G	0.24
A24U A31U	1.09
A42G C56U	0.26
A24G G34U	0.21
U112C A136G	1.51
U108C A136G	1.83
G49U A124U	1.59
G58A A140G	0.04
U112C C128U	1.35
C66U U109A	0.03
U52C C101G	1.31
U45C U52C	0.95
U23C	1.3
G32U U115A	1.04
A24U A64U	0.35

Hello, the source for this data is the RNAGym collection of RNA variant scans (doi:10.7554/elife.90254), in case you need it.
